System: HeLa cervix carcinoma cells
Experiment: MTT antiproliferative assay, HeLa
Assay type: cell-based
Conditions: Homo sapiens, 72 h
PROPERTY: IC50 (nM)

{"columns": ["COMPOUND", "UNIT_STRING", "NUMERIC_VALUE"],
 "data": [
  ["COc1ccc2c(c1)OC(N)=C(C#N)C2c1cc(F)c(F)c(F)c1 (centres unmarked)", "nM", 100],
  ["COc1ccc2c(c1)OC(N)=C(C#N)C2c1cc(I)c(OC)c(I)c1 (centres unmarked)", "nM", 30],
  ["COc1ccc2c(c1)OC(N)=C(C#N)C2c1cc(F)cc(F)c1 (centres unmarked)", "nM", 40],
  ["C#CCOc1ccc2c(c1)OC(N)=C(C#N)C2c1cc(Br)c(OC)c(OC)c1 (centres unmarked)", "nM", 40],
  ["COc1ccc2c(c1)OC(N)=C(C#N)C2c1ccccc1F (centres unmarked)", "nM", 400]
]}

* * *

Tested on: HT-29 colon carcinoma cells
Experiment: MTT antiproliferative assay, HT-29
Type: cell-based
Conditions: Homo sapiens, 72 h

{"columns": ["COMPOUND", "UNIT_STRING", "IC50"],
 "data": [
  ["COc1ccc2c(c1)OC(N)=C(C#N)C2c1cc(Cl)c(OC)c(Cl)c1 (stereo not shown) [2D]", "nM", 1400],
  ["COc1ccc2c(c1)OC(N)=C(C#N)C2c1cc(F)c(F)c(F)c1 (stereo not shown) [2P]", "nM", 200],
  ["COc1ccc2c(c1)OC(N)=C(C#N)C2c1ccc(F)cc1F (stereo not shown) [2L]", "nM", 500],
  ["COc1ccc2c(c1)OC(N)=C(C#N)C2c1ccc(Cl)c(Cl)c1 (stereo not shown) [2K]", "nM", 1900],
  ["COc1ccc2c(c1)OC(N)=C(C#N)C2c1ccc(F)c(Cl)c1 (stereo not shown) [2J]", "nM", 500],
  ["COc1ccc2c(c1)OC(N)=C(C#N)C2c1ccccc1Cl (stereo not shown) [2H]", "nM", 5300],
  ["C#CCOc1ccc2c(c1)OC(N)=C(C#N)C2c1cc(Br)c(OC)c(OC)c1 (stereo not shown) [compound 3]", "nM", 2100],
  ["COc1ccc2c(c1)OC(N)=C(C#N)C2c1cc(Br)c(OC)c(Br)c1 (stereo not shown) [2E]", "nM", 300],
  ["COc1ccc2c(c1)OC(N)=C(C#N)C2c1cc(Br)c(OC)c(OC)c1 (stereo not shown) [2B]", "nM", 200],
  ["COc1ccc2c(c1)OC(N)=C(C#N)C2c1cccc(F)c1F (stereo not shown) [2M]", "nM", 200],
  ["COc1ccc2c(c1)OC(N)=C(C#N)C2c1cc(I)c(OC)c(OC)c1 (stereo not shown) [2C]", "nM", 200],
  ["COc1ccc2c(c1)OC(N)=C(C#N)C2c1cc(F)ccc1F (stereo not shown) [2N]", "nM", 400],
  ["COc1ccc2c(c1)OC(N)=C(C#N)C2c1cc(I)c(OC)c(I)c1 (stereo not shown) [2F]", "nM", 60],
  ["COc1ccc2c(c1)OC(N)=C(C#N)C2c1cc(F)cc(F)c1 (stereo not shown) [2O]", "nM", 70],
  ["COc1ccc2c(c1)OC(N)=C(C#N)C2c1cccc([N+](=O)[O-])c1 (stereo not shown) [2R]", "nM", 200],
  ["COc1ccc2c(c1)OC(N)=C(C#N)C2c1ccc(F)c(F)c1 (stereo not shown) [2I]", "nM", 800],
  ["COc1ccc2c(c1)OC(N)=C(C#N)C2c1ccccc1F (stereo not shown) [2G]", "nM", 200],
  ["COc1ccc2c(c1)OC(N)=C(C#N)C2c1cccc(S(F)(F)(F)(F)F)c1 (stereo not shown) [2Q]", "nM", 400],
  ["COc1ccc2c(c1)OC(N)=C(C#N)C2c1cc(Cl)c(OC)c(OC)c1 (stereo not shown) [2A]", "nM", 300]
]}

* * *

System: KB-V1^Vbl cervix carcinoma cells
Test: MTT antiproliferative assay, KB-V1Vbl (with or without verapamil)
Format: cell-based, human
Details: inferred from KB-V1^Vbl cells with and without verapamil

{"columns": ["MOLECULE", "P-gp substrate / dependence on P-gp"],
 "data": [
  ["COc1ccc2c(c1)OC(N)=C(C#N)C2c1cccc(F)c1F (centres unmarked)", "P-gp substrates"],
  ["COc1ccc2c(c1)OC(N)=C(C#N)C2c1cc(F)cc(F)c1 (centres unmarked)", "no dependence on P-gp"],
  ["COc1ccc2c(c1)OC(N)=C(C#N)C2c1cc(F)c(F)c(F)c1 (centres unmarked)", "no dependence on P-gp"],
  ["COc1ccc2c(c1)OC(N)=C(C#N)C2c1cc(F)ccc1F (centres unmarked)", "P-gp substrates"]
]}

* * *

Test system: HDFa adult human dermal fibroblasts
Test: MTT cytotoxicity assay, non-malignant HDFa
Type: cell-based
Settings: 72 h, non-malignant cells

{"columns": ["COMPOUND", "EXPERIMENTAL_TARGET", "INEQUALITY_OPERATOR", "IC50 (µM)"],
 "data": [
  ["COc1ccc2c(c1)OC(N)=C(C#N)C2c1cc(Cl)c(OC)c(OC)c1 (centres unmarked)", "HDFa adult human dermal fibroblasts", "=", 11.5],
  ["COc1ccc2c(c1)OC(N)=C(C#N)C2c1cc(I)c(OC)c(I)c1 (centres unmarked)", "HDFa adult human dermal fibroblasts", ">", 50],
  ["COc1ccc2c(c1)OC(N)=C(C#N)C2c1cc(I)c(OC)c(OC)c1 (centres unmarked)", "HDFa adult human dermal fibroblasts", ">", 50],
  ["COc1ccc2c(c1)OC(N)=C(C#N)C2c1cc(Br)c(OC)c(OC)c1 (centres unmarked)", "HDFa adult human dermal fibroblasts", ">", 50],
  ["COc1ccc2c(c1)OC(N)=C(C#N)C2c1cc(Br)c(OC)c(Br)c1 (centres unmarked)", "HDFa adult human dermal fibroblasts", "=", 22.2]
]}

* * *

# pIC50 per record follows
Tested on: KB-V1^Vbl cervix carcinoma cells
Test: MTT antiproliferative assay, KB-V1Vbl (with or without verapamil)
Assay type: cell-based, human
Details: Homo sapiens, KB-V1/Vbl; MTT, 72 h, without verapamil; read-out: IC50 KB-V1^Vbl
pIC50: −log10 of the molar value.

{"columns": ["COMPOUND", "pIC50"],
 "data": [
  ["COc1ccc2c(c1)OC(N)=C(C#N)C2c1ccc(F)c(Cl)c1 (stereo not drawn)", 6.52],
  ["COc1ccc2c(c1)OC(N)=C(C#N)C2c1cc(I)c(OC)c(OC)c1 (stereo not drawn)", 7.22],
  ["COc1ccc2c(c1)OC(N)=C(C#N)C2c1ccc(Cl)c(Cl)c1 (stereo not drawn)", 5.89],
  ["COc1ccc2c(c1)OC(N)=C(C#N)C2c1cc(F)ccc1F (stereo not drawn)", 6.15],
  ["COc1ccc2c(c1)OC(N)=C(C#N)C2c1cccc(S(F)(F)(F)(F)F)c1 (stereo not drawn)", 5.72],
  ["COc1ccc2c(c1)OC(N)=C(C#N)C2c1cccc([N+](=O)[O-])c1 (stereo not drawn)", 7.52]
]}

* * *

System: KB-V1^Vbl cervix carcinoma cells
Test: MTT antiproliferative assay, KB-V1Vbl (with or without verapamil)
Type: cell-based, human
Conditions: Homo sapiens, KB-V1/Vbl; MTT, 72 h, without verapamil; read-out: IC50 KB-V1^Vbl
Excerpt: The following cell lines were used: 518A2 melanoma (Department of Radiotherapy, Medical University of Vienna, Austria)[15], HeLa cervix carcinoma, KBV1^Vbl (ACC-149 cervix carcinoma, MCF7 [ACC-115]) breast carcinoma, U-87 glioblastoma, HT-29 (ACC-299), HCT-116 (ACC-581) and HCT-116p53-/- colon carcinoma, EA.hy926 (ATCC® CRL-2922^TM) endothelial hybrid cells, and HDFa (ATCC® PCS-201-012^TM) adult human dermal fibroblasts. […] Only mycoplasma-free cultures were used.
# IC50 per record follows

{"columns": ["COMPOUND", "IC50 [nM]"],
 "data": [
  ["COc1ccc2c(c1)OC(N)=C(C#N)C2c1ccc(F)cc1F (stereo not drawn) [2L]", 3800],
  ["COc1ccc2c(c1)OC(N)=C(C#N)C2c1cc(Cl)c(OC)c(OC)c1 (stereo not drawn) [2A]", 6],
  ["COc1ccc2c(c1)OC(N)=C(C#N)C2c1ccccc1Cl (stereo not drawn) [2H]", 1900]
]}

* * *

Tested on: HeLa cervix carcinoma cells
Assay: MTT antiproliferative assay, HeLa
Assay type: cell-based
Conditions: Homo sapiens, 72 h

{"columns": ["MOLECULE", "EXPERIMENTAL_TARGET", "IC50 / µM"],
 "data": [
  ["COc1ccc2c(c1)OC(N)=C(C#N)C2c1cccc(F)c1F (stereo not drawn) [2M]", "HeLa cervix carcinoma cells", 0.09],
  ["COc1ccc2c(c1)OC(N)=C(C#N)C2c1cccc(S(F)(F)(F)(F)F)c1 (stereo not drawn) [2Q]", "HeLa cervix carcinoma cells", 0.4],
  ["COc1ccc2c(c1)OC(N)=C(C#N)C2c1ccc(F)cc1F (stereo not drawn) [2L]", "HeLa cervix carcinoma cells", 1.5]
]}
